Entry source: paper PMC6532841

system tested: orangutan HCA2 (Pongo abelii, UniProt A0A8I5YUU0)
Construct: gene HCAR2; full-length, HA/FLAG tags, CHO-K1
Sequence (A0A8I5YUU0 1-363): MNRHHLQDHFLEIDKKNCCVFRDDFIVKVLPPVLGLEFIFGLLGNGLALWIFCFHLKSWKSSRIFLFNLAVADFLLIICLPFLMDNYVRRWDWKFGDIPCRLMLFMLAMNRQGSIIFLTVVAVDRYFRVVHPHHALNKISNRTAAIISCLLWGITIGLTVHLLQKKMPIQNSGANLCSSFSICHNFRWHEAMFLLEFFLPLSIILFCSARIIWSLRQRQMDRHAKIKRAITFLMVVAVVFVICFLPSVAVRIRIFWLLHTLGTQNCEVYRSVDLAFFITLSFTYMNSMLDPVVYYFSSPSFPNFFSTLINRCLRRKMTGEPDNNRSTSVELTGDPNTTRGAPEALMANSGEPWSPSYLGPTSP
assay details: cAMP inhibition assay (ALPHAScreen), transfected CHO-K1
Assay type: cell-based
property name: EC50 (µM)

compound	property name	reported
C[C@@H](O)CC(=O)O [D-3HB]	EC50	680

* * *

system tested: mouse HCA1 (Mus musculus, UniProt Q8C131)
Construct: full-length, N-terminal HA and C-terminal FLAG tag, CHO-K1
Sequence (Q8C131 whole entry): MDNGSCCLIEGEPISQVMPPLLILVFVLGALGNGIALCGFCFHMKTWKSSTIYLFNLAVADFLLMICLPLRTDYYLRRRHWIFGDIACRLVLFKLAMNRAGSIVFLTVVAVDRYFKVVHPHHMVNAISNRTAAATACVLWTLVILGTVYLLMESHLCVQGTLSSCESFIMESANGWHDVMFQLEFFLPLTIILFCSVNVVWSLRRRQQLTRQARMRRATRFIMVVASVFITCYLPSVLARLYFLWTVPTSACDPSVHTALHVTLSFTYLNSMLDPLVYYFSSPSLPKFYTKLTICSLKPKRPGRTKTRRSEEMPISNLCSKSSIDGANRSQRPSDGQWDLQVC
assay details: cAMP inhibition assay (ALPHAScreen), transfected CHO-K1
property name: EC50 (µM)

compound	property name	reported
C[C@H](O)C(=O)O [L-lactate]	EC50	2900
